# Assay Target: Neuronal acetylcholine receptor; alpha4/beta2 (Homo sapiens, UniProt P17787+P43681)
# Assay Text: Agonist activity at human recombinant alpha4beta2 nicotinic acetylcholine receptor expressed in HEK293 cells assessed as changes in intracellular calcium level at 100 uM by FLIPR relative to nicotine
# Assay type: functional, cell-based
Result Type: Activity

Below are worked cases with known answers.
# Sample Smiles, Activity
measured = [
    ("c1cncc(N2C[C@H]3CNC[C@H]3C2)c1", "146%"),
    ("c1ccc(-c2cncc(N3C[C@H]4CNC[C@H]4C3)c2)cc1", "< 10%"),
]

Result for `CN1C[C@@H]2CN(c3ccc(-c4ccccc4)nn3)C[C@@H]2C1` , tested on Neuronal acetylcholine receptor; alpha4/beta2 (Homo sapiens, UniProt P17787+P43681), Activity: < 10%

###

The following compounds are listed with their measured pKi values.
# Assay Target: Neuronal acetylcholine receptor; alpha4/beta2 (Rattus norvegicus, UniProt P09483+P12390)
# Sequence (P09483 whole entry): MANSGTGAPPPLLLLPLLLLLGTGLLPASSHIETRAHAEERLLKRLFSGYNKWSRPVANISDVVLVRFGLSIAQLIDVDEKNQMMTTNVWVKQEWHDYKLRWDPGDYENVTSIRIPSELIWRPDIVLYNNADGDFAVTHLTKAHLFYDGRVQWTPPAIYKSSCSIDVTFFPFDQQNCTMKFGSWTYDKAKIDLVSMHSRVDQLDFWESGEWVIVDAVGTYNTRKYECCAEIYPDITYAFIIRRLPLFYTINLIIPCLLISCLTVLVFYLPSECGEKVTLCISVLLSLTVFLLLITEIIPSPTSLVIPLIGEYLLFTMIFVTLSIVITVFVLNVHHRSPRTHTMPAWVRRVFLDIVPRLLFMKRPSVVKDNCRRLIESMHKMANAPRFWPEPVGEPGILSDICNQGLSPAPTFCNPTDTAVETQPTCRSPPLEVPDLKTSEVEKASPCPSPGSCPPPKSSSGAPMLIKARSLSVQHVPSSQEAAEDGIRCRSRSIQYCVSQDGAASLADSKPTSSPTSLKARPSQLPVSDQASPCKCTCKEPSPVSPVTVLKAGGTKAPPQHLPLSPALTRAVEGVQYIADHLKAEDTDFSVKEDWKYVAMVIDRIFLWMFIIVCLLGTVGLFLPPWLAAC
# Sequence (P12390 whole entry): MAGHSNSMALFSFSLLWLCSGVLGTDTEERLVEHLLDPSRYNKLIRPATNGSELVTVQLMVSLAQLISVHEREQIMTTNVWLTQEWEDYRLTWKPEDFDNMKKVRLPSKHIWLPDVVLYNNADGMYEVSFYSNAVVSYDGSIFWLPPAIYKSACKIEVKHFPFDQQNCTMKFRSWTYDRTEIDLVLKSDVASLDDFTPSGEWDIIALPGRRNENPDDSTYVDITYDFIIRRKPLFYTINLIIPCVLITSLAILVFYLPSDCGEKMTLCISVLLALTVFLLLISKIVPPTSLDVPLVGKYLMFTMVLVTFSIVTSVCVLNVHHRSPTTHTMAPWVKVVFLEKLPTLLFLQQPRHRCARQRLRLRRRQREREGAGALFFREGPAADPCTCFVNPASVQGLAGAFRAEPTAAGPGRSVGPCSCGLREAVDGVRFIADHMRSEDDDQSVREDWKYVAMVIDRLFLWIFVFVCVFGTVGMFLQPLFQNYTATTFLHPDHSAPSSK
# Assay Text: Displacement of [3H]cytisine from alpha4beta2 nicotinic acetylcholine receptor in rat brain minus cerebellum membrane
# pKi is unitless: minus log10 of the molar concentration; print number only

# Sample Smiles, pKi
measured = [
    ("CN1C[C@@H]2CN(c3cncc(-c4ccccc4)c3)C[C@@H]2C1", 7.29),
]

Now examine the next entry.
Result for `c1ccc(COc2cncc(N3C[C@H]4CNC[C@H]4C3)c2)cc1` , tested on Neuronal acetylcholine receptor; alpha4/beta2 (Rattus norvegicus, UniProt P09483+P12390), pKi: 10.24

###

# Assay Target: Neuronal acetylcholine receptor subunit alpha-7 (Rattus norvegicus, UniProt Q05941)
# Sequence (Q05941 whole entry): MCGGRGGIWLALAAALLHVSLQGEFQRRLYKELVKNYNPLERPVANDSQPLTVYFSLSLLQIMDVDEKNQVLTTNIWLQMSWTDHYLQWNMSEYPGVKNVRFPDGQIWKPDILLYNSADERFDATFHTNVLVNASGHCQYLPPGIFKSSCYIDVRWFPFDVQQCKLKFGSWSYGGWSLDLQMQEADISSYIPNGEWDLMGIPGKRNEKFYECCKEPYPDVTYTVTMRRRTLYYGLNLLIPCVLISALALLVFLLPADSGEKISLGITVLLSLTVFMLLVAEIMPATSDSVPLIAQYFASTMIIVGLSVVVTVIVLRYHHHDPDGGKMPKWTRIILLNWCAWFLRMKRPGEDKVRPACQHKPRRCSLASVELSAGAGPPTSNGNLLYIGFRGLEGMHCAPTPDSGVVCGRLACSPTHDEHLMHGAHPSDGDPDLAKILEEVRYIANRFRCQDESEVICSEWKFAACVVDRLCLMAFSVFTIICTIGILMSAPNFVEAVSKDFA
# Assay Text: Displacement of [3H]A585539 from alpha7 nicotinic acetylcholine receptor in rat brain minus cerebellum membrane
The following molecules are listed with their measured Ki values.

# Sample Smiles, Ki
records = [
    ("CN1C[C@@H]2CN(c3cncc(-c4ccccc4)c3)C[C@@H]2C1", "> 10 µM"),
    ("c1ccc(COc2cncc(N3C[C@H]4CNC[C@H]4C3)c2)cc1", "> 10 µM"),
]

// recorded Ki for `c1cc(N2C[C@H]3CNC[C@H]3C2)ccn1` : > 10 µM

###

The following molecules are listed with their measured Ki values.
# Assay Target: Neuronal acetylcholine receptor; alpha4/beta2 (Rattus norvegicus, UniProt P09483+P12390)
# Assay Text: Displacement of [3H]cytisine from alpha4beta2 nicotinic acetylcholine receptor in rat brain minus cerebellum membrane
The response must be a number in µM with no trailing unit.

Below are worked cases with known answers.
# Sample Smiles, Uom, Endpoint Value
measured = [
    ("CN1C[C@@H]2CN(c3ccc(-c4cccc([N+](=O)[O-])c4)nc3)C[C@@H]2C1", "µM", 2.6),
    ("Clc1ccc(N2C[C@H]3CNC[C@H]3C2)cn1", "µM", 0.0002),
    ("COc1cncc(N2C[C@H]3CNC[C@H]3C2)c1", "µM", "8.1e-05"),
    ("Brc1ccc(N2C[C@H]3CNC[C@H]3C2)cn1", "µM", 0.00028),
]

// recorded Ki for `CN1C[C@@H]2CN(c3ccc(-c4cccc(O)c4)nn3)C[C@@H]2C1` : 21

###

# Assay Target: Neuronal acetylcholine receptor; alpha4/beta2 (Rattus norvegicus, UniProt P09483+P12390)
# Assay Text: Displacement of [3H]cytisine from alpha4beta2 nicotinic acetylcholine receptor in rat brain minus cerebellum membrane
pKi: −log10 of the molar value.
The following compounds are listed with their measured pKi values.

# Sample Smiles, pKi
records = [
    ("c1cc(N2C[C@H]3CNC[C@H]3C2)ccn1", "< 5.00"),
    ("COc1cccc(-c2ccc(N3C[C@H]4CN(C)C[C@H]4C3)cn2)c1", "< 4.00"),
]

Now examine the next entry.
Result for `CN1C[C@@H]2CN(c3ccc(-c4ccc(O)cc4)nn3)C[C@@H]2C1` , tested on Neuronal acetylcholine receptor; alpha4/beta2 (Rattus norvegicus, UniProt P09483+P12390), pKi: < 5.00

###

# Assay Target: Neuronal acetylcholine receptor; alpha4/beta2 (Rattus norvegicus, UniProt P09483+P12390)
# Assay Text: Displacement of [3H]cytisine from alpha4beta2 nicotinic acetylcholine receptor in rat brain minus cerebellum membrane
The following compounds are listed with their measured Ki values.

# Sample Smiles, Endpoint Value
data = [
    ("C[N+]1(C)C[C@H]2CN(c3ccc(-c4ccccc4)nn3)C[C@H]2C1", "> 10 µM"),
    ("Cc1ccccc1-c1ccc(N2C[C@H]3CN(C)C[C@H]3C2)nn1", "> 10 µM"),
]

// recorded Ki for `c1ccc(-c2ccc(N3C[C@H]4CNC[C@H]4C3)nc2)cc1` : > 100 µM
